Recorded MIC values (Staphylococcus epidermidis KCTC 1917) are given below.

CC[C@H](C)[C@H](NC(=O)[C@H](CC(C)C)NC(=O)[C@H](CC(C)C)NC(=O)[C@@H](N)CC(C)C)C(=O)N[C@H](C(=O)N[C@@H](CC(C)C)C(=O)N[C@@H](CCCN=C(N)N)C(=O)N[C@@H](CCCCN)C(=O)N[C@@H](CCCCN)C(N)=O)C(C)C :: 3.65 µM

# context switch: different compound, same MIC
[Q] Dear colleague, I am looking for the recorded MIC of the following compound: C[C@@H](O)[C@H](NC(=O)[C@H](Cc1c[nH]c2ccccc12)NC(=O)[C@H](Cc1c[nH]c2ccccc12)NC(=O)[C@@H](NC(=O)[C@H](CCCCN)NC(=O)[C@H](Cc1c[nH]c2ccccc12)NC(=O)[C@H](Cc1c[nH]c2ccccc12)NC(=O)[C@@H](NC(=O)[C@H](CCCCN)NC(=O)[C@@H](N)CCCCN)[C@@H](C)O)[C@@H](C)O)C(=O)N[C@@H](CCCCN)C(=O)N[C@@H](Cc1c[nH]c2ccccc12)C(=O)O
[A] 4 µM
